Each entry below carries its recorded solubility at 2 h.
# Assay notes: Kinetic solubility in PBS
# Assay type: physicochemical
# Stated conditions: phosphate-buffered saline, pH 7.4, aqueous buffer, kinetic from dmso stock

// below: answered compounds
{"Compound": "O=P(O)(O)CP(=O)(O)OC[C@H]1O[C@@H](n2ccc3c(-c4ccc5cc(F)ccc5c4)nc(Cl)nc32)[C@H](O)[C@@H]1O", "solubility at 2 h": "> 100 µM"}
{"Compound": "Nc1nc(-c2ccco2)c2ccn([C@@H]3O[C@H](COP(=O)(O)CP(=O)(O)O)[C@@H](O)[C@H]3O)c2n1 [11C.1]", "solubility at 2 h": "> 100 µM"}

We now examine a further compound.
Return solubility at 2 h for the following compound: O=P(O)(O)CP(=O)(O)OC[C@H]1O[C@@H](n2ccc3c(-c4cnc5ccccc5c4)ncnc32)[C@H](O)[C@@H]1O > 100 µM

* * *

# Assay notes: Kinetic solubility in PBS
# Format: physicochemical
# Stated conditions: phosphate-buffered saline, pH 7.4, aqueous buffer, kinetic from dmso stock
Each entry below carries its recorded solubility at 2 h.

// below: answered compounds
{"Compound": "O=P(O)(O)CP(=O)(O)OC[C@H]1O[C@@H](n2ccc3c(-c4cccc5c4oc4ccccc45)ncnc32)[C@H](O)[C@@H]1O", "solubility at 2 h": "> 100 µM"}
{"Compound": "O=P(O)(O)CP(=O)(O)OC[C@H]1O[C@@H](n2ccc3c(-c4ccc5c(c4)CCCC5)nc(I)nc32)[C@H](O)[C@@H]1O [27H.23]", "solubility at 2 h": "> 100 µM"}

We now examine a further compound.
Return solubility at 2 h for the following compound: O=P(O)(O)CP(=O)(O)OC[C@H]1O[C@@H](n2ccc3c(-c4ccc5cnccc5c4)ncnc32)[C@H](O)[C@@H]1O > 100 µM

* * *

# Assay notes: Plasma protein binding, mouse plasma
# Format: in vitro ADME
# Stated conditions: mouse, plasma, mouse plasma protein binding; read-out: PPB (m) (converted)
Experimental endpoint: fraction unbound at 4 h, 100 µM

{"Smiles repr": "O=P(O)(O)CP(=O)(O)OC[C@H]1O[C@@H](n2ccc3c(-c4ccco4)ncnc32)[C@H](O)[C@@H]1O", "Measured value": 0.699}
{"Smiles repr": "O=P(O)(O)CP(=O)(O)OC[C@H]1O[C@@H](n2ccc3c(-c4ccc5ncccc5c4)ncnc32)[C@H](O)[C@@H]1O", "Measured value": 0.685}
{"Smiles repr": "O=P(O)(O)CP(=O)(O)OC[C@H]1O[C@@H](n2ccc3c(-c4ccco4)nc(Cl)nc32)[C@H](O)[C@@H]1O", "Measured value": 0.818}

* * *

Each entry below carries its recorded fraction unbound at 4 h, 100 µM.
# Assay notes: Plasma protein binding, equilibrium dialysis, human plasma
# Type: in vitro ADME
# Stated conditions: undiluted plasma, human plasma protein binding, read-out: PPB (hu) (converted)

// below: answered molecules
{"Molecule": "CNc1nc(-c2ccc3ccccc3c2)c2ccn([C@@H]3O[C@H](COP(=O)(O)CP(=O)(O)O)[C@@H](O)[C@H]3O)c2n1 [22G.7]", "fraction unbound at 4 h, 100 µM": "≤ 0.01"}
{"Molecule": "C[C@H](Nc1cc(Cl)nc2c1cnn2[C@@H]1O[C@H](COP(=O)(O)CP(=O)(O)O)[C@@H](O)[C@H]1O)c1ccccc1F [AB680, quemliclustat, reference compound]", "fraction unbound at 4 h, 100 µM": "≤ 0.01"}

We now examine a further molecule.
Return fraction unbound at 4 h, 100 µM for the following molecule: O=P(O)(O)CP(=O)(O)OC[C@H]1O[C@@H](n2cnc3c(-c4ccc5ccccc5c4)ncnc32)[C@H](O)[C@@H]1O [31A.7] ≤ 0.01

* * *

# Assay notes: Microsomal stability assay, human liver microsomes
# Type: in vitro ADME
# Stated conditions: pooled liver microsomes, pH 7.4, read-out: Mics (hu) CLint
Each entry below carries its recorded microsomal CLint at 10 µM.

// below: answered molecules
{"Smiles repr": "O=P(O)(O)CP(=O)(O)OC[C@H]1O[C@@H](n2ccc3c(-c4ccc5cc(O)ccc5c4)nc(Cl)nc32)[C@H](O)[C@@H]1O", "microsomal CLint at 10 µM": "< 2 µL/min/mg"}
{"Smiles repr": "O=P(O)(O)CP(=O)(O)OC[C@H]1O[C@@H](n2ccc3c(-c4ccc5c(c4)CCCC5)nc(Cl)nc32)[C@H](O)[C@@H]1O", "microsomal CLint at 10 µM": "< 1 µL/min/mg"}

We now examine a further molecule.
Return microsomal CLint at 10 µM for the following molecule: N#Cc1ccc(-c2nc(Cl)nc3c2ccn3[C@@H]2O[C@H](COP(=O)(O)CP(=O)(O)O)[C@@H](O)[C@H]2O)c2ccccc12 < 2 µL/min/mg

* * *

Each entry below carries its recorded microsomal CLint at 10 µM.
# Assay notes: Microsomal stability assay, human liver microsomes
# Type: in vitro ADME
# Stated conditions: pooled liver microsomes, pH 7.4, read-out: Mics (hu) CLint

// below: answered compounds
{"Compound": "O=P(O)(O)CP(=O)(O)OC[C@H]1O[C@@H](n2ccc3c(-c4cc(Br)c5ccccc5c4F)nc(Cl)nc32)[C@H](O)[C@@H]1O", "Experimental endpoint": "microsomal CLint at 10 µM", "Measured value": "< 2 µL/min/mg"}
{"Compound": "O=P(O)(O)CP(=O)(O)OC[C@H]1O[C@@H](n2ccc3c(-c4cccc5ccccc45)nc(F)nc32)[C@H](O)[C@@H]1O [14D.6]", "Experimental endpoint": "microsomal CLint at 10 µM", "Measured value": "< 1 µL/min/mg"}
{"Compound": "O=P(O)(O)CP(=O)(O)OC[C@H]1O[C@@H](n2ccc3c(-c4cccc5ccoc45)ncnc32)[C@H](O)[C@@H]1O", "Experimental endpoint": "microsomal CLint at 10 µM", "Measured value": "< 1 µL/min/mg"}
{"Compound": "O=P(O)(O)CP(=O)(O)OC[C@H]1O[C@@H](n2ccc3c(-c4ccc5cc(F)ccc5c4)nc(Cl)nc32)[C@H](O)[C@@H]1O", "Experimental endpoint": "microsomal CLint at 10 µM", "Measured value": "< 2 µL/min/mg"}
{"Compound": "O=P(O)(O)CP(=O)(O)OC[C@H]1O[C@@H](n2ccc3c(-c4ccc5ncccc5c4)ncnc32)[C@H](O)[C@@H]1O", "Experimental endpoint": "microsomal CLint at 10 µM", "Measured value": "< 1 µL/min/mg"}

Return microsomal CLint at 10 µM for the following compound: O=P(O)(O)CP(=O)(O)OC[C@H]1O[C@@H](n2ccc3c(-c4ccncc4)ncnc32)[C@H](O)[C@@H]1O 3 µL/min/mg

Return microsomal CLint at 10 µM for the following compound: Cc1nc(-c2ccc3ccccc3c2)c2ccn([C@@H]3O[C@H](COP(=O)(O)CP(=O)(O)O)[C@@H](O)[C@H]3O)c2n1 [18E.7] 5 µL/min/mg

Return microsomal CLint at 10 µM for the following compound: O=P(O)(O)CP(=O)(O)OC[C@H]1O[C@@H](n2ccc3c(-c4ccc5ccccc5c4)nc(Cl)nc32)[C@H](O)[C@@H]1O < 1 µL/min/mg

Return microsomal CLint at 10 µM for the following compound: Cc1nc(-c2ccco2)c2ccn([C@@H]3O[C@H](COP(=O)(O)CP(=O)(O)O)[C@@H](O)[C@H]3O)c2n1 [18E.1] < 1 µL/min/mg

Return microsomal CLint at 10 µM for the following compound: O=P(O)(O)CP(=O)(O)OC[C@H]1O[C@@H](n2ccc3c(-c4ccco4)nc(F)nc32)[C@H](O)[C@@H]1O [14D.1] < 1 µL/min/mg

* * *

# Assay notes: Plasma protein binding, mouse plasma
# Format: in vitro ADME
# Stated conditions: mouse, plasma, mouse plasma protein binding; read-out: PPB (m) (converted)
Experimental endpoint: fraction unbound at 4 h, 100 µM

// below: answered molecules
{"Molecule": "O=P(O)(O)CP(=O)(O)OC[C@H]1O[C@@H](n2ccc3c(-c4ccc(F)c5ccccc45)nc(Cl)nc32)[C@H](O)[C@@H]1O", "fraction unbound at 4 h, 100 µM": 0.232}
{"Molecule": "O=P(O)(O)CP(=O)(O)OC[C@H]1O[C@@H](n2ccc3c(-c4cccc5ccncc45)ncnc32)[C@H](O)[C@@H]1O", "fraction unbound at 4 h, 100 µM": 0.727}
{"Molecule": "Cc1nc(-c2cc3ccccc3o2)c2ccn([C@@H]3O[C@H](COP(=O)(O)CP(=O)(O)O)[C@@H](O)[C@H]3O)c2n1 [18E.8]", "fraction unbound at 4 h, 100 µM": 0.302}
{"Molecule": "O=P(O)(O)CP(=O)(O)OC[C@H]1O[C@@H](n2ccc3c(-c4ccc5c(c4)CCO5)ncnc32)[C@H](O)[C@@H]1O", "fraction unbound at 4 h, 100 µM": 0.547}
{"Molecule": "O=P(O)(O)CP(=O)(O)OC[C@H]1O[C@@H](n2cnc3c(-c4cccc5c4CCCC5)ncnc32)[C@H](O)[C@@H]1O [31A.12]", "fraction unbound at 4 h, 100 µM": 0.509}
{"Molecule": "Cc1nc(-c2cccc3c2CCCC3)c2ccn([C@@H]3O[C@H](COP(=O)(O)CP(=O)(O)O)[C@@H](O)[C@H]3O)c2n1 [18E.12]", "fraction unbound at 4 h, 100 µM": 0.323}
{"Molecule": "O=P(O)(O)CP(=O)(O)OC[C@H]1O[C@@H](n2ccc3c(-c4cc5ccccc5o4)nc(Cl)nc32)[C@H](O)[C@@H]1O", "fraction unbound at 4 h, 100 µM": 0.187}
{"Molecule": "O=P(O)(O)CP(=O)(O)OC[C@H]1O[C@@H](n2ccc3c(-c4cccc5c4OCCC5)ncnc32)[C@H](O)[C@@H]1O", "fraction unbound at 4 h, 100 µM": 0.594}

I: O=P(O)(O)CP(=O)(O)OC[C@H]1O[C@@H](n2ccc3c(-c4ccc5cc(Cl)ccc5c4)nc(Cl)nc32)[C@H](O)[C@@H]1O
II: Nc1nc(-c2ccco2)c2ccn([C@@H]3O[C@H](COP(=O)(O)CP(=O)(O)O)[C@@H](O)[C@H]3O)c2n1 [11C.1]
III: COc1nc(-c2ccc3ccccc3c2)c2ccn([C@@H]3O[C@H](COP(=O)(O)CP(=O)(O)O)[C@@H](O)[C@H]3O)c2n1 [21F.7]
IV: Nc1nc(-c2ccc3ccccc3c2)c2ccn([C@@H]3O[C@H](COP(=O)(O)CP(=O)(O)O)[C@@H](O)[C@H]3O)c2n1 [11C.7]
Falling order of fraction unbound at 4 h, 100 µM, please. Submit the labels in the order that the ranking request calls for. II, IV, III, I

A: O=P(O)(O)CP(=O)(O)OC[C@H]1O[C@@H](n2cnc3c(-c4cccc5ccccc45)ncnc32)[C@H](O)[C@@H]1O [31A.6]
B: CNc1nc(-c2ccc3ccccc3c2)c2ccn([C@@H]3O[C@H](COP(=O)(O)CP(=O)(O)O)[C@@H](O)[C@H]3O)c2n1 [22G.7]
Which record shows the lower fraction unbound at 4 h, 100 µM: the first, A , or the second, B ? Please identify the chosen entry by its label. B

The reported numbers originate from paper PMC12797170.
